Measured values drawn from patent US20220033484A1 for this set.

targetDesc: T1, cTnI quality control product recombinant protein (human, UniProt P19429 2-210, limits assumed)
T1 construct: treated as the same molecule; also called cTnI antigen; cardiac troponin I
T1 sequence (P19429 2-210 limits assumed): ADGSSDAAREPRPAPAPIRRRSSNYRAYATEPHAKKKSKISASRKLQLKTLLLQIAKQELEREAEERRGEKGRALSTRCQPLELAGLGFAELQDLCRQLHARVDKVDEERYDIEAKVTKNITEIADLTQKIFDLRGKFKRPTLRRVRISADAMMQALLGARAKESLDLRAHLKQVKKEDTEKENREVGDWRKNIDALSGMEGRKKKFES
assayName: sandwich ELISA, antibody 37.037 ng/ml on anti-mouse IgG, cTnI 0.15 ug/ml, HRP second mAb
readoutName: OD450 (ref. 630 nm) (OD)

Mutation 2 (antibody, V domains shown, Built as m3, with this row's residues) VH: EVQLQQSGPELVKPGASVKMSCKASGYSFTLYVVHWVKQKPGQGLEWIGYIQPYLDGTKYNEKFKGKATLTVDKSSSTAFMELSSLTSEDSAVYYCARSGYGGYGLAWLAYWGQGTLVTVSA VL: QAVVIQESALTTSPGETVTLTCRSSTGAATTSQYANWVQEKPDHLFTGLIGGSNNRVPGVPARFSGSLIGDKAALTITGAQTEDEAIYFCAIVYSNHWVFGGGTKLTVLG: 2.1
Mutation 3 (antibody, V domains shown, Built as m3, with this row's residues) VH: EVQLQQSGPELVKPGASVKMSCKASGYTFTLYVVHWVKQKPGQGLEWIGYIQPYLDGTHYNEKFKGKATLTVDKSSSTAFMELSSLTSEDSAVYYCARSGYGGYGLAWLAYWGQGTLVTVSA VL: QAVVIQESALTTSPGETVTLTCRSSSGAATTSQYANWVQEKPDHLFTGLIGGSNNRIPGVPARFSGSLIGDKAALTITGAQTEDEAIYFCAAVYSNHWVFGGGTKLTVLG: 1.58
Anti-cTnI-21C5 monoclonal antibody (recombinant) (antibody, mouse IgG2b, V domains shown, also called WT; Sample 1) VH: EVQLQQSGPELVKPGASVKMSCKASGYSFTLYVVHWVKQKPGQGLEWIGYIQPYLDGTRYNEKFKGKATLTVDKSSSTAFMELSSLTSEDSAVYYCARTGYGGYGLAWLAYWGQGTLVTVSA VL: QAVVIQESALTTSPGETVTLTCRSSSGAATTSQYANWVQEKPDHLFTGLIGGSNNRAPGVPARFSGSLIGDKAALTITGAQTEDEAIYFCAIVYSNHWVFGGGTKLTVLG: 2.16
Mutation 1 (antibody, V domains shown, CDR mutant of WT) VH: EVQLQQSGPELVKPGASVKMSCKASGYTFTLYVVHWVKQKPGQGLEWIGYIQPYLDGTKYNEKFKGKATLTVDKSSSTAFMELSSLTSEDSAVYYCARSGYGGYGLAWLAYWGQGTLVTVSA VL: QAVVIQESALTTSPGETVTLTCRSSTGAATTSQYANWVQEKPDHLFTGLIGGSNNRAPGVPARFSGSLIGDKAALTITGAQTEDEAIYFCALVYSNHWVFGGGTKLTVLG: 2.33
